B1: Membrane-associated guanylate kinase, WW and PDZ domain-containing protein 1, residues 352 to 401; numbered along this chain, Q96QZ7 (parent)
chain: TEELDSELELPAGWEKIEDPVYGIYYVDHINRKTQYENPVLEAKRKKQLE

Variants of: B1
Experiment: abundance fitness (aPCA) (normalised: wild type 0, dead -1); higher = more abundant; growth selection in yeast, the domain comes from the species named
Conditions: Homo sapiens
reported.property: abundance fitness

Y36E :: -0.172
Q48H :: -0.1
K46L :: -0.133
K46Y :: -0.169
K46M :: -0.328

The variant identified as L4Q registered its abundance fitness at -0.067

The variant identified as L8T registered its abundance fitness at -0.105

The variant identified as L49I registered its abundance fitness at -0.232
